tested on: human Factor XI mRNA; assay: Dose-dependent antisense inhibition in HepG2 cells, lipofectin (Example 2); format: cell-based; settings: 75 nM, approximately 16 hours
In the oligonucleotide strings, read from the 5' end, every base follows the letter of its sugar. An asterisk marks phosphorothioate; unmarked linkages are phosphodiester. Other units and linkages are bracketed, terminal groups are in braces. A string of capitals states the bases alone. e = 2'-O-(2-methoxyethyl) (MOE); [5mC] = 5-methylcytosine; d = 2'-deoxy (DNA)
Answer Not met if percent inhibition of Factor XI is under 70%, and Met if it is 70% or more.

stdin: Record 412206 (antisense e[5mC]*e[5mC]*eG*eT*eG*d[5mC]*dA*dT*d[5mC]*dT*dT*dT*d[5mC]*dT*dT*eG*eG*e[5mC]*eA*eT) [compound 412206] ; criterion: percent inhibition of Factor XI no lower than 70%. Met?
stdout: Met

stdin: Record 413467 (antisense eG*eG*eT*e[5mC]*e[5mC]*dA*d[5mC]*dA*dT*dA*dA*dA*dT*dG*dT*e[5mC]*eT*eT*eT*eG) [compound 413467] ; criterion: percent inhibition of Factor XI no lower than 70%. Met?
stdout: Not met

###

test system: mouse Factor XI mRNA; test: Cross-reactive antisense inhibition in primary mouse hepatocytes, 100 nM (Example 9); type: cell-based; details: approx. 24 h, percent inhibition relative to untreated control cells
In the oligonucleotide strings, read from the 5' end, every base follows the letter of its sugar. An asterisk marks phosphorothioate; unmarked linkages are phosphodiester. Other units and linkages are bracketed, terminal groups are in braces. A string of capitals states the bases alone. e = 2'-O-(2-methoxyethyl) (MOE); [5mC] = 5-methylcytosine; d = 2'-deoxy (DNA)
READOUT_TYPE: Inhibition of mouse Factor XI mRNA levels (column headed SEQ ID No.)
Numbers only.

For record 404083 (antisense eT*eG*eT*eG*e[5mC]*dA*dG*dA*dG*dT*d[5mC]*dA*d[5mC]*d[5mC]*dT*eG*e[5mC]*e[5mC]*eA*eT) [compound 404083] the listed Inhibition of mouse Factor XI mRNA levels (column headed SEQ ID No.) is 47

For record 404067 (antisense eG*eG*eG*eA*eA*dA*dA*dT*dG*dT*d[5mC]*d[5mC]*d[5mC]*dT*dG*eA*eT*eA*e[5mC]*eA) [compound 404067] the listed Inhibition of mouse Factor XI mRNA levels (column headed SEQ ID No.) is 39

For record 404066 (antisense eA*eA*eT*eG*eT*d[5mC]*d[5mC]*d[5mC]*dT*dG*dA*dT*dA*d[5mC]*dA*eA*eG*e[5mC]*e[5mC]*eA) [compound 404066] the listed Inhibition of mouse Factor XI mRNA levels (column headed SEQ ID No.) is 37

For record 404089 (antisense eT*eG*eA*eA*eT*dT*dA*dT*d[5mC]*dA*dT*dT*dT*d[5mC]*dT*eT*eG*eA*eA*e[5mC]) [compound 404089] the listed Inhibition of mouse Factor XI mRNA levels (column headed SEQ ID No.) is 6

For record 404055 (antisense eT*eG*eT*eT*eA*dT*dA*dG*dT*dT*d[5mC]*dA*dT*dG*d[5mC]*e[5mC]*e[5mC]*eT*eT*e[5mC]) [compound 404055] the listed Inhibition of mouse Factor XI mRNA levels (column headed SEQ ID No.) is 27

Here is another substance to look at.
For record 404087 (antisense eT*eT*e[5mC]*eT*eT*dG*dA*dA*d[5mC]*d[5mC]*d[5mC]*dT*dG*dA*dA*eG*eA*eA*eA*eG) [compound 404087] the listed Inhibition of mouse Factor XI mRNA levels (column headed SEQ ID No.) is 29
